Residues, ends and D or L forms follow the SMILES beside them.
pIC50, HIV integrase (Human immunodeficiency virus type 1 group M subtype B, UniProt P04585): measured values
Give bare numbers, as −log10 of the molar value.

Example results:
molecule	measured.value
NCCCC[C@H](NC(=O)[C@H](CS)NC(=O)[C@@H](N)Cc1c[nH]cn1)C(=O)N[C@@H](Cc1ccccc1)C(=O)N[C@@H](Cc1c[nH]c2ccccc12)C(=O)N[C@@H](Cc1ccccc1)C(N)=O [compound 15] (H-HCKFWF-NH2)	5.30
CC[C@H](C)[C@H](NC(=O)[C@H](Cc1c[nH]c2ccccc12)NC(=O)[C@H](Cc1ccccc1)NC(=O)[C@H](CCCCN)NC(=O)[C@H](CS)NC(=O)[C@@H](N)Cc1c[nH]cn1)C(N)=O [compound 11] (H-HCKFWI-NH2)	5.40
C[C@H](NC(=O)[C@H](CCCCN)NC(=O)[C@H](CS)NC(=O)[C@@H](N)Cc1c[nH]cn1)C(=O)N[C@@H](Cc1c[nH]c2ccccc12)C(=O)N[C@@H](Cc1c[nH]c2ccccc12)C(N)=O [compound 25] (H-HCKAWW-NH2)	5.10

Shifting focus to the molecule that follows.
Q: What measured pIC50 is associated with C[C@H](NC(=O)[C@H](Cc1c[nH]c2ccccc12)NC(=O)[C@H](Cc1ccccc1)NC(=O)[C@H](CCCCN)NC(=O)[C@H](CS)NC(=O)[C@@H](N)Cc1c[nH]cn1)C(N)=O [compound 27] (H-HCKFWA-NH2) on HIV integrase (Human immunodeficiency virus type 1 group M subtype B, UniProt P04585)?
Result: 3.68

Values were extracted from patent US5578573A.
